The origin of these recorded values is paper PMC10977726.

# TESTED_SYSTEM: human IgG Fc (Biotin-SP-ChromPure Human IgG, Fc fragment) (human, biotin (Biotin-SP))
# RUN_DESCRIPTION: ELISA; […], room temperature; […]
# EXPERIMENTAL_CONDITIONS: both partners purified
Note to self: use condition met only for IC50 readings below 400 nM; a reading exactly at 400 nM still gets condition not met.

BINDER	LABEL
GCQAHYWYRVWFCKQDSDCLAGCVCGPNGFCG (designed binder) [Ig-EET-1]	condition not met
GCGYWYMQWFCKQDSDCLAGCVCRPKPECG (designed binder) [Ig-EET-4]	condition not met
VGECVRGRCSKISCCSQFGYCGKGPKYCG (designed binder) [Ig-AMP-1]	condition met
VGECVRGRCSQISCCSQFGYCGKGPKYCG (designed binder) [Ig-AMP-3]	condition met
VGECVRGRCSAISCCSQFGYCGKGPKYCG (designed binder) [Ig-AMP-2]	condition met
VGECVRGRCSSISCCSQFGYCGKGPKYCG (designed binder) [Ig-AMP-4]	condition met
